Test system: CCRIS mutagenicity, Ames/micronucleus/aberration tests
Measurement Notes: CCRIS mutagenicity studies
Experimental Conditions: Test System: AMES SALMONELLA TYPHIMURIUM; Strain/Indicator: TA1537; Metabolic Activation: HAMSTER, LIVER, S-9, AROCLOR 1254; Method: PREINCUBATION
Calls of active or inactive are those of the source. No rule for the calls is given here.
Observation Type: mutagenic call

>>> experimental_value("O=[N+]([O-])c1cccc(Cl)c1Cl")
"inactive; negative"
>>> experimental_value("NC(=O)CCCCC(N)=O")
"inactive; negative"
>>> experimental_value("CN[C@@H]1[C@H](O[C@H]2[C@H](O[C@H]3[C@H](O)[C@@H](O)[C@H](N=C(N)N)[C@@H](O)[C@@H]3N=C(N)N)O[C@@H](C)[C@]2(O)C=O)O[C@@H](CO)[C@H](O)[C@H]1O")
"inactive; negative"
>>> experimental_value("CC[C@H]1OC(=O)[C@H](C)[C@@H](O[C@H]2C[C@@](C)(OC)[C@@H](O)[C@H](C)O2)[C@H](C)[C@@H](O[C@@H]2O[C@H](C)C[C@H](N(C)C)[C@H]2O)[C@](C)(O)C[C@@H](C)C(=O)[C@H](C)[C@@H](O)[C@]1(C)O")
"inactive; negative"
>>> experimental_value("Nc1ccc(-c2ccc(N)c(Cl)c2)cc1Cl")
"active; positive"
>>> experimental_value("Clc1ccccc1")
"inactive; negative"
>>> experimental_value("C1CC2OC2CC1C1CO1 (stereo not drawn)")
"active; positive"
>>> experimental_value("C1O[C@@H]1[C@@H]1CO1")
"inactive; negative"
>>> experimental_value("COc1ccc(O)cc1")
"inactive; negative"
>>> experimental_value("O=NN1CCCCC1")
"inactive; negative"
>>> experimental_value("CCN(CC)c1ccc2c(C)cc(=O)oc2c1")
"inactive; negative"
>>> experimental_value("Oc1cc(Cl)ccc1Cl")
"inactive; negative"
>>> experimental_value("CC1(C)S[C@@H]2[C@H](NC(=O)[C@H](N)c3ccccc3)C(=O)N2[C@H]1C(=O)O")
"inactive; negative"

###

Test system: CCRIS mutagenicity, Ames/micronucleus/aberration tests
Measurement Notes: CCRIS mutagenicity studies
Experimental Conditions: Test System: AMES SALMONELLA TYPHIMURIUM; Strain/Indicator: TA98; Metabolic Activation: HAMSTER, LIVER, S-9, AROCLOR 1254; Method: STANDARD PLATE
Calls of active or inactive are those of the source. The rule behind the calls is not given here.
Outcome codes: active, inactive

>>> label_class("Cc1ccc(N=Nc2c(O)ccc3ccccc23)c(C)c1")
"active"
>>> label_class("CCCON=O")
"inactive"
>>> label_class("O=C(CCl)c1ccc(Cl)cc1Cl")
"inactive"
>>> label_class("C/C=N/O")
"inactive"
>>> label_class("Nc1c(Br)cc([N+](=O)[O-])cc1[N+](=O)[O-]")
"active"
>>> label_class("C1CCC2CCCCC2C1 (stereo not given)")
"inactive"
>>> label_class("Nc1nc2cc(Cl)c(Cl)cc2s1")
"inactive"
>>> label_class("CC(O)CCC(=O)c1ccoc1 (stereo not given)")
"inactive"
>>> label_class("C1O[C@@H]1[C@@H]1CO1")
"inactive"
>>> label_class("C[n+]1cccc(C(=O)[O-])c1")
"inactive"
>>> label_class("O=CC(O)C(O)C(O)C(O)COC1OC(COC2OC(CO)C(O)C(O)C2O)C(O)C(O)C1O (stereo not given)")
"inactive"
>>> label_class("Nc1ccc(N=Nc2ccc(N)cc2)cc1")
"active"
>>> label_class("CCCCCCCCCC/C=C/C1CC(=O)OC1=O (stereo not given)")
"inactive"
>>> label_class("CC(C)=CCC1=C(O)c2ccccc2C(=O)C1=O")
"inactive"
>>> label_class("O=C(O)CN(CCN(CC(=O)O)CC(=O)O)CC(=O)O")
"inactive"
>>> label_class("CCOCOCC")
"inactive"
>>> label_class("ClNc1nc(NCl)nc(NCl)n1")
"inactive"
>>> label_class("CN(C)c1ccc2nc3ccc(=[N+](C)C)cc-3sc2c1")
"active"
>>> label_class("O=C(O)/C=C/c1ccc(O)c(O)c1")
"inactive"
>>> label_class("Cl/C=C/CCl")
"active"
>>> label_class("NC(=O)c1ccc(N)cc1")
"inactive"
>>> label_class("Fc1ccccc1-c1ccccc1")
"inactive"
>>> label_class("O=C(O)O")
"inactive"
>>> label_class("Nc1nc2ccc([N+](=O)[O-])cc2s1")
"active"
>>> label_class("COc1cc2c(c(OC)c1OC)-c1ccc(OC)c(=O)cc1[C@@H](NC(C)=O)CC2")
"inactive"
